Cited source: ChEMBL document CHEMBL4765245

Experiment: Selectivity index, ratio of CC50 for human HeLa cells to IC50 for pleconaril-resistant Coxsackievirus B3 97927 11207T/I1092 mutant infected in HeLa cell line assessed as inhibition of virus-induced cytopathic effect
Assay type: toxicity
Conditions: read-out: Selectivity Index
measurement type: selectivity ratio
Please reply with the number alone, leaving off any unit.

## Input Using the record for Cc1cc(-c2noc(C(F)(F)F)n2)ccc1OCCCc1cc(C(=O)N(C)C)no1 , report its selectivity ratio.
## Output 1340

* * *

Assay: Selectivity index, ratio of CC50 for human HeLa cells to IC50 for Rhinovirus B14 infected in HeLa cell line assessed as inhibition of virus-induced cytopathic effect
Type: toxicity
Conditions: read-out: Selectivity Index
measurement type: selectivity ratio
Please reply with the number alone, leaving off any unit.

## Input Using the record for Cc1cc(-c2noc(C(F)(F)F)n2)ccc1OCCCc1cc(C(=O)N(C)C)no1 , report its selectivity ratio.
## Output 149

* * *

Experiment: Selectivity index, ratio of CC50 for human HeLa cells to IC50 for Rhinovirus A2 infected in HeLa cell line assessed as inhibition of virus-induced cytopathic effect
Type: toxicity
Details: read-out: Selectivity Index
measurement type: selectivity ratio
Please reply with the number alone, leaving off any unit.

## Input Using the record for Cc1cc(-c2noc(C(F)(F)F)n2)ccc1OCCCc1cc(C(=O)N(C)C)no1 , report its selectivity ratio.
## Output 15.6

* * *

Experiment: Selectivity index, ratio of CC50 for human HeLa cells to IC50 for Coxsackievirus B3 Nancy infected in HeLa cell line assessed as inhibition of virus-induced cytopathic effect
Assay type: toxicity
Conditions: read-out: Selectivity Index
measurement type: selectivity ratio
Please reply with the number alone, leaving off any unit.

## Input Using the record for Cc1cc(-c2noc(C(F)(F)F)n2)ccc1OCCCc1cc(C(=O)N(C)C)no1 , report its selectivity ratio.
## Output 4.9

* * *

Measured pIC50, listed per entry for reference.
Test system: rhinovirus A2
Experiment: Antiviral activity against Rhinovirus A2 infected in human HeLa cell line assessed as inhibition of virus-induced cytopathic effect measured after 72 hrs by crystal violet uptake assay
Format: functional, organism-based
Conditions: Rhinovirus A, HeLa, 72 h; read-out: IC50
Quick note: pIC50 values are minus log10 of concentrations in mol/L.

The following molecules have reported results that may help.
[[record]]
compound_structure_string = "CNC(=O)c1cc(CCCOc2c(C)cc(-c3noc(C(F)(F)F)n3)cc2C)on1"
measurement_type = "pIC50"
endpoint_result = 6.70

[[record]]
compound_structure_string = "COc1cc(-c2noc(C(F)(F)F)n2)cc([N+](=O)[O-])c1OCCCc1cc(C(=O)N(C)C)no1"
measurement_type = "pIC50"
endpoint_result = 6.49

[[record]]
compound_structure_string = "Cc1cc(-c2noc(C(F)(F)F)n2)cc(C)c1OCCCc1cc(C(N)=O)no1"
measurement_type = "pIC50"
endpoint_result = 6.30


## Input Using the record for CN(C)C(=O)c1cc(CCCOc2ccc(-c3noc(C(F)(F)F)n3)cc2[N+](=O)[O-])on1 , report its pIC50.
## Output 6.17

## Input Using the record for CN(C)C(=O)c1cc(CCCOc2ccc(-c3noc(C(F)(F)F)n3)cc2C(F)(F)F)on1 , report its pIC50.
## Output 6.49

## Input Using the record for CN(C)C(=O)c1cc(CCCOc2ccc(-c3noc(C(F)(F)F)n3)cc2)on1 , report its pIC50.
## Output 5.34

## Input Using the record for CNC(=O)c1cc(CCCOc2ccc(-c3noc(C(F)(F)F)n3)cc2C(F)(F)F)on1 , report its pIC50.
## Output 6.02

## Input Using the record for CCOC(=O)c1cc(CCCOc2c(OC)cc(-c3noc(C(F)(F)F)n3)cc2[N+](=O)[O-])on1 , report its pIC50.
## Output 5.25

## Input Using the record for Cc1cc(-c2noc(C(F)(F)F)n2)cc(C)c1OCCCc1cc(C(=O)OC(C)C)no1 , report its pIC50.
## Output 5.61

## Input Using the record for CCNC(=O)c1cc(CCCOc2c(C)cc(-c3noc(C(F)(F)F)n3)cc2C)on1 , report its pIC50.
## Output 6.22
